# run.description: Intestinal microsomal stability, rat
# Assay type: in vitro ADME
# recorded.conditions: rat intestinal microsomes 1 mg/mL protein, NADPH, 37° C.
assay.metric: half-life at 1 µM

• CCC(C)(C)C(=O)OC[n+]1cccc(C(=O)NCCO[N+](=O)[O-])c1.[Cl-] = > 1 h
• CCCCCCCCCCCC(=O)OC[n+]1cccc(C(=O)NCCO[N+](=O)[O-])c1.[Cl-] = 0.433 h
• O=C(NCCO[N+](=O)[O-])c1ccc[n+](COC(=O)N2CCCC2C(=O)O)c1.[Cl-] (stereo not shown) = > 1 h

Now consider a different compound.
Please supply the value of reported half-life at 1 µM for the item C[C@H](NC(=O)OC[n+]1cccc(C(=O)NCCO[N+](=O)[O-])c1)C1CCCCC1.O=[N+]([O-])[O-] [reference compound]
> 1 h

Attribution: patent US20250145571A1
